Measured values drawn from the supplement of paper PMC11451515 for this set.

Test system: NOMO1
protocol-notes: cell viability relative to DMSO control; higher = less cytotoxic
particulars: HPLM + 10% dialyzed FBS; 48 h; 15.4 µM
quantity-measured: cell viability (%)
Hi! Could you send only the number? It should be in %, unit omitted.

Record excerpt, results attached:
[
  {
    "smiles-repr": "OC[C@H](Cc1ccccc1)Nc1nc(Oc2ccc3c(c2)CCC3)nc2c1ncn2Cc1ccc(-c2ccccc2)cc1",
    "quantity-measured": "cell viability",
    "val": 87.2
  },
  {
    "smiles-repr": "CCC[C@H](N[C@@H](C)C(=O)N1[C@H](C(=O)O)C[C@@H]2CCCC[C@@H]21)C(=O)OCC",
    "quantity-measured": "cell viability",
    "val": 54.1
  },
  {
    "smiles-repr": "CC(=O)O[C@@]1(CC[C@H]2[C@@H]3\\C=C(C)/C4=C/C(=O)CC[C@]4(C)[C@H]3CC[C@]12C)C(C)=O",
    "quantity-measured": "cell viability",
    "val": 116
  },
  {
    "smiles-repr": "CC1=C(C=CC=C1)N2\\C(=N/C3=C(C(=CC=C3)C)C2=O)C[N]4N=CC5=C4N=CN=C5N",
    "quantity-measured": "cell viability",
    "val": 38.5
  }
]

The molecule identified as CC(C)(C)C(=O)OCOP(=O)(COCCn1cnc2c(N)ncnc21)OCOC(=O)C(C)(C)C registered its cell viability at 18.9

---

System: P12-Ichikawa
protocol-notes: cell viability relative to DMSO control; higher = less cytotoxic
particulars: RPMI 5 mM glucose + 10% FBS; 48 h; 0.0632 µM
Below, each entry is listed alongside its reported cell viability.
Hi! Could you send only the number? It should be in %, unit omitted.

Record excerpt, results attached:
[
  {
    "compound": "O=C(Nc1cccc(Nc2ncc(Br)c(NCCc3cnc[nH]3)n2)c1)N1CCCC1",
    "val": 88.1
  },
  {
    "compound": "C[C@@H]1COCCN1C\\2=C\\C(=O)N\\3CC[C@H](N(CC4=CN=CC(=C4)Cl)C3=N2)C(F)(F)F",
    "val": 98.3
  }
]

The compound identified as CCc1c(C(=O)C(N)=O)c2c(OCC(=O)O)cccc2n1Cc1ccccc1 registered its cell viability at 105

The compound identified as O=C(/C=C/c1c(C(=O)[O-])[nH]c2cc(Cl)cc(Cl)c12)Nc1ccccc1 registered its cell viability at 108

The compound identified as Cc1ncc(OC[C@@]2(c3cccc(F)c3)C[C@H]2C(=O)Nc2ccc(F)cn2)c(C)n1 registered its cell viability at 110

The compound identified as Cc1cccc(C)c1OCC(=O)N[C@@H](Cc1ccccc1)[C@@H](O)C[C@H](Cc1ccccc1)NC(=O)[C@H](C(C)C)N1CCCNC1=O registered its cell viability at 102

The compound identified as C1CCC(C(CC2CCCCN2)C2CCCCC2)CC1 (stereo not drawn) registered its cell viability at 128

The compound identified as CCC1(c2ccc(N)cc2)CCC(=O)NC1=O (stereo not drawn) registered its cell viability at 110

The compound identified as CC(C)n1nc(-c2ccc3oc(N)nc3c2)c2c(N)ncnc21 registered its cell viability at 52

The compound identified as CCOC(=O)N1CCN(/[N+]([O-])=N/Oc2ccc([N+](=O)[O-])cc2[N+](=O)[O-])CC1 registered its cell viability at 102

The compound identified as CCN(CC)C(=S)SSC(=S)N(CC)CC registered its cell viability at 119

The compound identified as C=CC1=C(C(=O)O)N2C(=O)[C@@H](NC(=O)/C(=N\O)c3csc(N)n3)[C@H]2SC1 registered its cell viability at 117

---

Below, each entry is listed alongside its reported cell viability.
Test system: P12-Ichikawa
protocol-notes: cell viability relative to DMSO control; higher = less cytotoxic
particulars: RPMI 5 mM glucose + 10% dialyzed FBS; 48 h; 46.1 µM
Hi! Could you send only the number? It should be in %, unit omitted.

[
  {
    "smiles-repr": "O=C(NC[C@H](O)CN1CCc2ccccc2C1)c1cc(NC2COC2)ncn1",
    "val": 66.3
  },
  {
    "smiles-repr": "CCNC(=O)c1cc2c(-c3cc(OCCN4CCCC4)c(Cl)cc3Cl)nc(N)nc2s1",
    "val": 31.5
  },
  {
    "smiles-repr": "CC(C)[C@@H](C[S+](=O)([O-])C(C)C)N1C(=O)[C@@](C)(CC(=O)O)C[C@H](c2cccc(Cl)c2)[C@H]1c1ccc(Cl)cc1",
    "val": 21.1
  }
]

The compound identified as CCc1c(C(=O)C(N)=O)c2c(OCC(=O)O)cccc2n1Cc1ccccc1 registered its cell viability at 91.3

---

Test system: NOMO1
protocol-notes: cell viability relative to DMSO control; higher = less cytotoxic
particulars: HPLM + 10% dialyzed FBS; 48 h; 0.00702 µM
quantity-measured: cell viability (%)
Hi! Could you send only the number? It should be in %, unit omitted.

Record excerpt, results attached:
[
  {
    "compound": "CC(=O)CC(C1=CC=CC=C1)C/2=C(O)/C3=CC=CC=C3OC2=O (stereo unspecified)",
    "cell viability / %": 111
  },
  {
    "compound": "CCNC(=O)c1cc2c(-c3cc(OCCN4CCCC4)c(Cl)cc3Cl)nc(N)nc2s1",
    "cell viability / %": 92.7
  },
  {
    "compound": "CC1(C)OC2CC3C4CC(F)C/5=C/C(=O)/C=C\\C5(C)C4C(O)CC3(C)[C@@]2(O1)C(=O)CO (stereo partly specified)",
    "cell viability / %": 118
  },
  {
    "compound": "OC[C@H]1O[C@H]([C@@H](F)[C@@H]1O)N2\\C=C/C(=O)NC2=O",
    "cell viability / %": 106
  },
  {
    "compound": "C[S+](=O)([O-])N(Cc1ccco1)CC(O)Cn1c2ccccc2c2ccccc21 (stereo unspecified)",
    "cell viability / %": 102
  },
  {
    "compound": "CC(=O)OCC(=O)[C@@]12\\N=C(C)/O[C@@H]1C[C@H]3[C@@H]4CCC/5=C/C(=O)/C=C\\[C@]5(C)[C@H]4[C@@H](O)C[C@]23C",
    "cell viability / %": 109
  }
]

The compound identified as CC[C@H]1/C=C\C=C/C[C@@H](C)[C@H](O)[C@@](C)(O)C(=O)[C@@H](C)[C@H](O)[C@@H](C)C(=O)[C@@H](C)[C@H](O)[C@@H](C)/C=C/C(=O)O[C@@H]2[C@H](C)[C@H](CC1)O[C@]1(CC[C@H](C)[C@H](C[C@@H](C)O)O1)[C@H]2C registered its cell viability at 105

The compound identified as CNC1[C@@H](O)C(O[C@@H]2C(O)C(O[C@H]3O[C@H]([C@@H](C)NC)CC[C@H]3N)[C@@H](N)C[C@H]2N)OC[C@]1(C)O (stereo partly specified) registered its cell viability at 104

The compound identified as Cc1cccc(C)c1OCC(=O)N[C@@H](Cc1ccccc1)[C@@H](O)C[C@H](Cc1ccccc1)NC(=O)[C@H](C(C)C)N1CCCNC1=O registered its cell viability at 102

---

System: NOMO1
protocol-notes: AUC of viability dose-response curve (% viability x log10 dose units); higher = less sensitive
particulars: RPMI 5 mM glucose + 10% dialyzed FBS; 48 h
# strict inequality: AUC of viability dose-response curve < 400 yields Y, everything else yields N

Some entries whose results are on file:
[
  {
    "molecule": "CCCCCCCc1ccc(CCc2cccc(O)c2C(=O)O)cc1",
    "class-label": "N"
  },
  {
    "molecule": "CN1\\C(=C(\\O)C2=C(C=CS2)[S+]1([O-])=O)C(=O)NC3=CC=CC=N3",
    "class-label": "N"
  },
  {
    "molecule": "CN(C)NC(=O)CCC(=O)O",
    "class-label": "N"
  },
  {
    "molecule": "C=CCNC1=C2C[C@@H](C)C[C@H](OC)[C@H](O)[C@@H](C)/C=C(\\C)[C@H](OC(N)=O)[C@@H](OC)/C=C\\C=C(/C)C(=O)NC(=CC1=O)C2=O",
    "class-label": "Y"
  },
  {
    "molecule": "CC\\1=C(C(=O)N(\\C=C1)C2=CC=C(C=C2)C3=NC=CO3)/C4=CC5=CN=C(N)N=C5C=C4",
    "class-label": "N"
  },
  {
    "molecule": "CN(C)CCc1c[nH]c2ccc(C[C@H]3COC(=O)N3)cc12",
    "class-label": "N"
  }
]

Query block: Is 400 strictly greater than the molecule's reported AUC of viability dose-response curve? molecule: C1CCC(C(CC2CCCCN2)C2CCCCC2)CC1 (centres undefined)
Result block: N

Query block: Is 400 strictly greater than the molecule's reported AUC of viability dose-response curve? molecule: CC(C)Nc1cc(C(F)(F)F)cc2nc(NC(=O)c3cccnc3)nn12
Result block: Y

Query block: Is 400 strictly greater than the molecule's reported AUC of viability dose-response curve? molecule: CC(=O)N1CCN(c2ccc(OC[C@H]3CO[C@](Cn4ccnc4)(c4ccc(Cl)cc4Cl)O3)cc2)CC1
Result block: N

Query block: Is 400 strictly greater than the molecule's reported AUC of viability dose-response curve? molecule: CCN(CC)C(=S)SSC(=S)N(CC)CC
Result block: Y

Query block: Is 400 strictly greater than the molecule's reported AUC of viability dose-response curve? molecule: COc1cc2c(Oc3ccc(NC(=O)C4(C(=O)Nc5ccc(F)cc5)CC4)cc3F)ccnc2cc1OCCCN1CCOCC1
Result block: Y
